# MEASURED_ON: NS3/NS4 complexes (Hepatitis C virus genotype 1a)
# Sequence (P27958 1658-1711): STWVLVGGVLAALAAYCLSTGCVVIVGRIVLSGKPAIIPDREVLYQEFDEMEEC
# Sequence (P27958 1027-1657): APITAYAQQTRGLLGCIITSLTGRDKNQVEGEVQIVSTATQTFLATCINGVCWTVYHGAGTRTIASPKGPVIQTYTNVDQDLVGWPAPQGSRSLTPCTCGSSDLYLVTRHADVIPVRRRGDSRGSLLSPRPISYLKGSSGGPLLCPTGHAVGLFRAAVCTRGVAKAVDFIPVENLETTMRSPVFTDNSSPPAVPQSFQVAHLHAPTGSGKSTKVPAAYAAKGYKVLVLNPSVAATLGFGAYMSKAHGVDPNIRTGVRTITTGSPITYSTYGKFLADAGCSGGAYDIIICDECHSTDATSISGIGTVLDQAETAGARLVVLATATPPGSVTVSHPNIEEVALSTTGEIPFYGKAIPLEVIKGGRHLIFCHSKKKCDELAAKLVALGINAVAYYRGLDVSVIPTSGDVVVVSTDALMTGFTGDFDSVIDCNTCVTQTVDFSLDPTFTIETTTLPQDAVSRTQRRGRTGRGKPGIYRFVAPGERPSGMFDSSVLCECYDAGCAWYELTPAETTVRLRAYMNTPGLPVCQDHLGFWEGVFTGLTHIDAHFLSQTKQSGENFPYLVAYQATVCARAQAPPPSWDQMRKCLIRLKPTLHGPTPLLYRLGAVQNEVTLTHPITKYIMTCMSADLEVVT
# ASSAY_NOTES: NS3/NS4 inhibition assay (inhibitory concentrations of test compounds)
# CONDITION: NS3-NS4 activity; 23° C., pH 7.5, 25 μM NS4A peptide
# From the text: NS3-NS4 inhibition activity can be determined using known assay methods. For example, NS3/NS4 complexes may be formed and inhibitory concentrations of test compounds determined as described in U.S. Patent Application Publication Number 2007/0054842 paragraph numbers 1497-1509, which is incorporated herein by reference in its entirety. […]
pIC50: −log10 of the molar value.
QUANTITY_NAME: pIC50

Recorded pIC50, per entry:
COc1cnc(O[C@H]2CN3C(=O)[C@@H](NC(=O)OC(C)(C)C)CCCCC/C=C\[C@@H]4C[C@@]4(C(=O)O)NC(=O)[C@@H]3[C@@H]2C)c2cc(Cl)ccc12
> 8.00
COc1ccc2c(O[C@H]3CN4C(=O)[C@@H](N)CCCCC/C=C\[C@@H]5C[C@@]5(C(=O)NS(=O)(=O)C5(C)CC5)NC(=O)[C@@H]4[C@@H]3C)cc(-c3nc(C(C)C)cs3)nc2c1C
> 8.00
C=C[C@@H]1C[C@]1(NC(=O)[C@@H]1[C@H](C)[C@@H](Oc2cc(-c3nc(C(C)C)cs3)nc3c(C)c(OC)ccc23)CN1C(=O)[C@@H](NC(=O)OC(C)(C)C)C(C)(C)C)C(=O)NS(=O)(=O)C1CC1
> 8.00
C=C[C@@H]1C[C@]1(NC(=O)[C@@H]1[C@H](C)[C@@H](Oc2cc(-c3nc(C(C)C)cs3)nc3c(C)c(OC)ccc23)CN1C(=O)[C@@H](N)C(C)(C)C)C(=O)NS(=O)(=O)C1CC1
> 8.00
C=C[C@@H]1C[C@]1(NC(=O)[C@H]1N(C(=O)C(NC(=O)OC(C)(C)C)C(C)(C)C)C[C@H](Oc2cc(-c3nc(C(C)C)cs3)nc3c(C)c(OC)ccc23)C1(C)C)C(=O)NS(=O)(=O)C1(C)CC1 (stereo partly shown)
< 7.00

QUERY: Tell us which pIC50 value is on record for COc1ccc2c(O[C@H]3CN4C(=O)[C@@H](NC(=O)OC(C)(C)C)CCCCC/C=C\[C@@H]5C[C@@]5(C(=O)NS(=O)(=O)C5(C)CC5)NC(=O)[C@@H]4[C@@H]3C)cc(-c3nc(C(C)C)cs3)nc2c1C
RESULT: > 8.00

QUERY: Tell us which pIC50 value is on record for C=C[C@@H]1C[C@]1(NC(=O)[C@@H]1[C@H](C)[C@@H](Oc2ncc(OC)c3ccc(Cl)cc23)CN1C(=O)[C@@H](NC(=O)OC(C)(C)C)C(C)(C)C)C(=O)O
RESULT: 7.00 to 8.00

QUERY: Tell us which pIC50 value is on record for COc1ccc2c(O[C@H]3CN4C(=O)[C@@H](NC(=O)OC(C)(C)C)CCCCC/C=C\[C@@H]5C[C@@]5(C(=O)NS(=O)(=O)C5(C)CC5)NC(=O)[C@@H]4[C@H]3C)cc(-c3nc(C(C)C)cs3)nc2c1C
RESULT: 7.00 to 8.00

QUERY: Tell us which pIC50 value is on record for CC(C)n1c(O[C@H]2CN3C(=O)[C@@H](NC(=O)OC(C)(C)C)CCCCC/C=C\[C@@H]4C[C@@]4(C(=O)NS(=O)(=O)C4(C)CC4)NC(=O)[C@@H]3[C@@H]2C)nc2c(-c3nc(C4CCCCC4)cs3)cccc21
RESULT: > 8.00

QUERY: Tell us which pIC50 value is on record for C=C[C@@H]1C[C@]1(NC(=O)[C@@H]1[C@@H](C)[C@@H](Oc2cc(-c3nc(C(C)C)cs3)nc3c(C)c(OC)ccc23)CN1C(=O)[C@@H](N)C(C)(C)C)C(=O)NS(=O)(=O)C1(C)CC1
RESULT: < 7.00

QUERY: Tell us which pIC50 value is on record for C=C[C@@H]1C[C@]1(NC(=O)[C@@H]1[C@H](C)[C@@H](Oc2cc(-c3nc(C(C)C)cs3)nc3c(C)c(OC)ccc23)CN1C(=O)[C@@H](NC(=O)OC(C)(C)C)C(C)(C)C)C(=O)NS(=O)(=O)C1(C)CC1
RESULT: > 8.00
